Reported Percent Similarity Score (KD on hN) is given for each of the following binders.
# ASSAYED TARGET: T1, human NGF (human, UniProt P01138 122-241)
# T1 construct: also called human Nerve Growth Factor; hN
# T1 chain: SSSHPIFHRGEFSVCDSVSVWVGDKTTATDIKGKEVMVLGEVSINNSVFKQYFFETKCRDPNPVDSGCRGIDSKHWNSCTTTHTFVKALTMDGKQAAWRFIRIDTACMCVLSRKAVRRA
# METHOD DESCRIPTION: SPR (Biacore T200), 100 nM mAb on NGF chip, similarity to parent mAb
All answers are understood in %, so give the number only.

Just so you know, measured Percent Similarity Score (KD on hN) for can9L12VH_G55A (antibody, V domains shown) VH: EVQLVESGGDLVKPGGSLRLSCVASGFTFSSHGMHWVRQSPGKGLQWVAVINSGASSTYYTDAVKGRFTISRDNAKNTVYLQMNSLRAEDTAMYYCAKESVGGWEQLVGPHFDYWGQGTLVIVSS VL: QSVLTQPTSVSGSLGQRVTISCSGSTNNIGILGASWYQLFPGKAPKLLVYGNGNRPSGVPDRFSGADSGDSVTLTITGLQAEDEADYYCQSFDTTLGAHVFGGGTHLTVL came out at 100

Just so you know, measured Percent Similarity Score (KD on hN) for can9L12VL_D93A (antibody, V domains shown) VH: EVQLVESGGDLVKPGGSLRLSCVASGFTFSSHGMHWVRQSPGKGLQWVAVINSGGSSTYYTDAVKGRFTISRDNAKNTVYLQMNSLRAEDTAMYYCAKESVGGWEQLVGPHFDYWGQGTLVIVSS VL: QSVLTQPTSVSGSLGQRVTISCSGSTNNIGILGASWYQLFPGKAPKLLVYGNGNRPSGVPDRFSGADSGDSVTLTITGLQAEDEADYYCQSFATTLGAHVFGGGTHLTVL came out at 3.3

Just so you know, measured Percent Similarity Score (KD on hN) for can9L12VH_S30A (antibody, V domains shown) VH: EVQLVESGGDLVKPGGSLRLSCVASGFTFASHGMHWVRQSPGKGLQWVAVINSGGSSTYYTDAVKGRFTISRDNAKNTVYLQMNSLRAEDTAMYYCAKESVGGWEQLVGPHFDYWGQGTLVIVSS VL: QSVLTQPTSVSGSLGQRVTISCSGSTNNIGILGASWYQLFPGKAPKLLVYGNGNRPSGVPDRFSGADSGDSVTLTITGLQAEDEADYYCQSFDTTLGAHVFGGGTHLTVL came out at 31.2
